Source listed as patent US7074789B2.

For each of the compounds below, state its IC50.
Measurement target: PDGFRB (Homo sapiens, UniProt P09619)
Construct: Kinases are expressed as either kinase domains or full length constructs; made in house
Sequence (P09619 33-1106, species assumed): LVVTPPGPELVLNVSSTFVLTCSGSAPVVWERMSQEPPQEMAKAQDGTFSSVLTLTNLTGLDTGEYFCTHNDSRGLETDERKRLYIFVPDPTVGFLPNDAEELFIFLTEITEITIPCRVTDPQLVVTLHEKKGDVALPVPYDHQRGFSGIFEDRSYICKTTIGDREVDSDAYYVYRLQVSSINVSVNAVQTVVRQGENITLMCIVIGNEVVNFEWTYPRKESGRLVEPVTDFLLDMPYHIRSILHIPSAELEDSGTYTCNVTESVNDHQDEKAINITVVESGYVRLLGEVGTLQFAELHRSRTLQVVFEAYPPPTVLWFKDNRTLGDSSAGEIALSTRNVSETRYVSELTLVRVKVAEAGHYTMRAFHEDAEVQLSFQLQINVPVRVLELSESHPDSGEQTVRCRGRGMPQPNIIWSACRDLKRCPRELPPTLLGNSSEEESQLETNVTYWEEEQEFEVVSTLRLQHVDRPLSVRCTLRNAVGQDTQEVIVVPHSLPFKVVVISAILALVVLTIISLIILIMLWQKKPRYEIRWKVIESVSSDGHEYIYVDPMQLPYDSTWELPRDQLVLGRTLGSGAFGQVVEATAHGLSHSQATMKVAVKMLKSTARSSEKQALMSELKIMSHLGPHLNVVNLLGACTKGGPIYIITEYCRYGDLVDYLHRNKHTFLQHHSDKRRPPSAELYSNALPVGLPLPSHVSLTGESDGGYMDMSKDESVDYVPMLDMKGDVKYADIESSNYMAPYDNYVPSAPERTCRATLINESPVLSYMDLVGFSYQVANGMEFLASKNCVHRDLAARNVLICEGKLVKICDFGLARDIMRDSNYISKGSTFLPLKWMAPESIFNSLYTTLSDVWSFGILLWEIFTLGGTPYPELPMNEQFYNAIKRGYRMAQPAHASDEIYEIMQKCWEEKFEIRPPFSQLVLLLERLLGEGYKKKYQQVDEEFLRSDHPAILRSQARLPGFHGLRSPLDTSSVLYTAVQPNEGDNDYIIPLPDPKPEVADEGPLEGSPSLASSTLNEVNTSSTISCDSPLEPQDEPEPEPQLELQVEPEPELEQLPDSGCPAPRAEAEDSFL
Test method notes: Kinase inhibition assay (33P transfer), PDGFRB
Assay type: biochemical
Measurement conditions: read-out: PDGFRB-1

Compound: CCOC(=O)C(Nc1nc2ccccc2n1-c1ncnc(Nc2cc(OC)c(OC)c(OC)c2)n1)c1ccccc1 (centres unmarked)
Readout label: IC50
Observed measurement: 0.72 to 4.32 µM

Compound: CN(c1ccc2c(cnn2Cc2ccccc2)c1)c1ncnc(Nc2cccc(Cc3nnn[nH]3)c2)n1
Readout label: IC50
Observed measurement: 0.817 to 4.9 µM

Compound: NC(=O)Cc1cccc(Nc2ncnc(Nc3cccc(Br)c3)n2)c1
Readout label: IC50
Observed measurement: < 1 µM

Compound: CN(c1cccc(Cl)c1)c1ncnc(N(C)c2cccc(Cl)c2)n1
Readout label: IC50
Observed measurement: > 12.5 µM

Compound: CC(C)Nc1ncccc1-c1ncnc(Nc2cccc(Cn3ccnn3)c2)n1
Readout label: IC50
Observed measurement: 1.03 to 6.19 µM

Batch request: IC50 for each of the following compounds.
1. COc1ccc(Nc2ncnc(N(C)c3ccc(Cl)c(Cl)c3)n2)cc1OC
2. COc1ccc(N(C)c2ncnc(-n3c(N)nc4ccccc43)n2)cc1
3. O=S(=O)(O)c1cccc(Nc2ncnc(Nc3cc(-c4ccco4)[nH]n3)n2)c1
4. c1ccc(CNc2nc3ccccc3n2-c2ncnc(Nc3cccc(Cc4nnn[nH]4)c3)n2)cc1
5. COC(=O)c1ccc(-c2cc(Nc3ncnc(NCCc4ccc(OC)cc4)n3)[nH]n2)cc1
6. COC(=O)c1cccc(Nc2nc3ccccc3n2-c2ncnc(Nc3cc(OC)c(OC)c(OC)c3)n2)c1
7. COc1cc(C)c(Nc2ncnc(Nc3cc(-c4ccc(Cl)cc4)n[nH]3)n2)cc1OC

1: < 0.985 µM; 2: > 13 µM; 3: 1 to 6.01 µM; 4: < 0.841 µM; 5: 0.898 to 5.39 µM; 6: < 0.758 µM; 7: > 10.3 µM

---

Measurement target: AKT (Homo sapiens)
Construct: Kinases are expressed as either kinase domains or full length constructs; made in house
Test method notes: Kinase inhibition assay (33P transfer), AKT
Type: biochemical
Measurement conditions: Table 2, kinase inhibition class; read-out: AKT3-1
Readout label: IC50

Here's what some known entries look like.
Given smiles: COc1cc(Nc2ncnc(-c3cccnc3Cl)n2)cc(OC)c1OCCN1CCOCC1
Readout label: IC50
Observed measurement: > 9.52 µM

Given smiles: COc1cc(Nc2ncnc(-n3c(NC(C)C)nc4ccccc43)n2)cc(OC)c1OC
Readout label: IC50
Observed measurement: > 10.3 µM

Given smiles: COc1ccc(Nc2ncnc(NCCCOC(C)C)n2)cc1OC
Readout label: IC50
Observed measurement: > 13 µM

Given smiles: CN(c1cccc(Cl)c1)c1ncnc(Nc2ccc(CC(=O)O)cc2)n1
Readout label: IC50
Observed measurement: > 12.2 µM

Given smiles: COc1ccc(Nc2ncnc(N(C/C=C/c3ccccc3)c3ccc(Cl)cc3)n2)cc1OC
Readout label: IC50
Observed measurement: > 9.49 µM

Batch request: IC50 for each of the following compounds.
1. COc1cc(Nc2ncnc(Nc3ccc(NC(=O)OC(C)(C)C)cc3)n2)cc(OC)c1OC
2. NC(=O)c1cccc(Nc2ncnc(-n3c(N)nc4ccccc43)n2)c1
3. CCOC(=O)C(Cc1cccc(Nc2ncnc(Nc3cc(-c4ccco4)n[nH]3)n2)c1)(NC(C)=O)C(=O)OCC

1. > 9.6 µM
2. 10.1 to 13 µM
3. > 8.2 µM

---

For each of the molecules below, state its IC50.
Measurement target: AKT (Homo sapiens)
Construct: Kinases are expressed as either kinase domains or full length constructs; made in house
Test method notes: Kinase inhibition assay (33P transfer), AKT
Format: biochemical
Measurement conditions: Table 2, class symbols A-E; read-out: AKT3-1

Here's what some known entries look like.
Molecule: COc1cc(Nc2ncnc(-c3cccnc3NC3CCc4ccccc43)n2)cc(OC)c1OC (centres unmarked) [Compound 846]
IC50: > 9.56 µM
--
Molecule: c1coc(-c2cc(Nc3ncnc(Nc4ccc(-c5csnn5)cc4)n3)n[nH]2)c1 [Compound 891]
IC50: 0.991 to 5.95 µM
--
Molecule: O=C(O)Cc1cccc(Nc2ncnc(-c3cccnc3Nc3ccccc3)n2)c1 [Compound 1094]
IC50: > 11.3 µM
--
Molecule: Cc1ccc(Cl)cc1Nc1ncnc(N2c3ccc(F)cc3CCC2C)n1 (centres unmarked) [Compound 644]
IC50: > 11.7 µM

From here, focus on the item given below.
The measured IC50 associated with COc1cc(Nc2ncnc(Nc3cc(Cl)c(NC(=O)c4ccccc4)cc3C)n2)cc(OC)c1OC [Compound 633] reads > 8.64 µM

---

For each of the compounds below, state its IC50.
Measurement target: IGFR-1 (Homo sapiens)
Construct: Kinases are expressed as either kinase domains or full length constructs; made in house
Sequence (P08069 31-1367): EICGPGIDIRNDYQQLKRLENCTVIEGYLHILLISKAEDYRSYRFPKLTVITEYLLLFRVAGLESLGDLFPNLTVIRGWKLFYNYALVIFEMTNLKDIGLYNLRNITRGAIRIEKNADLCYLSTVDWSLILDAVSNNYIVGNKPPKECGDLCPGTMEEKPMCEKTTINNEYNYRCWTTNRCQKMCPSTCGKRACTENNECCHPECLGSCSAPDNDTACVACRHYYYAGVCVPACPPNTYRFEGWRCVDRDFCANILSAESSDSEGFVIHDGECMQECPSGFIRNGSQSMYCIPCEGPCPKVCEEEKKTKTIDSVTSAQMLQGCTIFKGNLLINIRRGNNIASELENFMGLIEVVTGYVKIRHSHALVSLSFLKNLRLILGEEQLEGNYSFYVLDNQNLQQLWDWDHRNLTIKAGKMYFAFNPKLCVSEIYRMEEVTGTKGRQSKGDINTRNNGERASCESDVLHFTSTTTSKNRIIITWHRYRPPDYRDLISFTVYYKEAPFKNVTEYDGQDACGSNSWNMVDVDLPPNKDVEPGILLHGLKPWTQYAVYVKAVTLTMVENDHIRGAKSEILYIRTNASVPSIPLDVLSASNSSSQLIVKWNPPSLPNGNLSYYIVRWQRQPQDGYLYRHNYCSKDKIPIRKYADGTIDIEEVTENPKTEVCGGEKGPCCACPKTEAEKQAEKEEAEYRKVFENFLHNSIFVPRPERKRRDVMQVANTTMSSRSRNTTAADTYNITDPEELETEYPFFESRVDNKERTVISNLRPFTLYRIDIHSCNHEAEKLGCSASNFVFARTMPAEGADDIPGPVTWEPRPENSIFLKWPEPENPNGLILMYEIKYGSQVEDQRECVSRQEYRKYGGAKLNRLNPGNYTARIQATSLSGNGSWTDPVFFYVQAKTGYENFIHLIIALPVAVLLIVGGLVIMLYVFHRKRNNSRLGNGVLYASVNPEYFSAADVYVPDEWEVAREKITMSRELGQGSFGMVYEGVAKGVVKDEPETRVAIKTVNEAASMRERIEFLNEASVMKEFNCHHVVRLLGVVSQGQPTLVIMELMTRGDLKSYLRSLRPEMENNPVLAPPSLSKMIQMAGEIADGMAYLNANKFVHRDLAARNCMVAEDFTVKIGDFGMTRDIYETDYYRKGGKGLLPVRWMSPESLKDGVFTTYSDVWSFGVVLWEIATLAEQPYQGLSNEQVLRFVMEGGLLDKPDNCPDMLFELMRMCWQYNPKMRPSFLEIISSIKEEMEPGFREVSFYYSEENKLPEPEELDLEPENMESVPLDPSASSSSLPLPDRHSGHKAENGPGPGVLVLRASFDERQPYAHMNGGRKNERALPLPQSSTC
Test method notes: Kinase inhibition assay (33P transfer), IGFR-1
Format: biochemical
Measurement conditions: Table 2, kinase inhibition class

Here's what some known entries look like.
Given smiles: COc1cc(Nc2ncnc(-n3c(Cl)nc4ccccc43)n2)cc(OC)c1OC
IC50: 0.969 to 5.81 µM

Given smiles: COc1cc(Nc2ncnc(Nc3cccc(Cl)c3)n2)cc(OC)c1OC
IC50: < 1.03 µM

Given smiles: NC(=O)c1cccc(Nc2ncnc(-n3c(N)nc4ccccc43)n2)c1
IC50: 1.15 to 6.93 µM

Given smiles: COc1ccc(Nc2ncnc(Nc3ccc(OCc4ccccc4)cc3)n2)cc1OC
IC50: > 10.5 µM

Given smiles: CC(=O)Nc1ccc(Nc2ncnc(-c3cccs3)n2)cc1
IC50: > 14.5 µM

Batch request: IC50 for each of the following compounds.
1. COc1cc(Nc2ncnc(Nc3cc(C)ccc3C)n2)cc(OC)c1OC
2. COc1cc(Nc2ncnc(-n3cc(CC(N)=O)c4ccccc43)n2)cc(OC)c1OC
3. COc1ccc(Nc2ncnc(N(CC(=O)O)c3ccc4c(c3)OCO4)n2)cc1OC
4. COc1ccc(Nc2ncnc(Nc3ccc(OCc4ccccc4)cc3)n2)cc1O

1. 1.05 to 6.29 µM
2. > 10.4 µM
3. > 10.6 µM
4. > 10.8 µM

---

For each of the compounds below, state its IC50.
Measurement target: ErbB4 (Homo sapiens)
Sequence (Q15303 26-1308, species assumed): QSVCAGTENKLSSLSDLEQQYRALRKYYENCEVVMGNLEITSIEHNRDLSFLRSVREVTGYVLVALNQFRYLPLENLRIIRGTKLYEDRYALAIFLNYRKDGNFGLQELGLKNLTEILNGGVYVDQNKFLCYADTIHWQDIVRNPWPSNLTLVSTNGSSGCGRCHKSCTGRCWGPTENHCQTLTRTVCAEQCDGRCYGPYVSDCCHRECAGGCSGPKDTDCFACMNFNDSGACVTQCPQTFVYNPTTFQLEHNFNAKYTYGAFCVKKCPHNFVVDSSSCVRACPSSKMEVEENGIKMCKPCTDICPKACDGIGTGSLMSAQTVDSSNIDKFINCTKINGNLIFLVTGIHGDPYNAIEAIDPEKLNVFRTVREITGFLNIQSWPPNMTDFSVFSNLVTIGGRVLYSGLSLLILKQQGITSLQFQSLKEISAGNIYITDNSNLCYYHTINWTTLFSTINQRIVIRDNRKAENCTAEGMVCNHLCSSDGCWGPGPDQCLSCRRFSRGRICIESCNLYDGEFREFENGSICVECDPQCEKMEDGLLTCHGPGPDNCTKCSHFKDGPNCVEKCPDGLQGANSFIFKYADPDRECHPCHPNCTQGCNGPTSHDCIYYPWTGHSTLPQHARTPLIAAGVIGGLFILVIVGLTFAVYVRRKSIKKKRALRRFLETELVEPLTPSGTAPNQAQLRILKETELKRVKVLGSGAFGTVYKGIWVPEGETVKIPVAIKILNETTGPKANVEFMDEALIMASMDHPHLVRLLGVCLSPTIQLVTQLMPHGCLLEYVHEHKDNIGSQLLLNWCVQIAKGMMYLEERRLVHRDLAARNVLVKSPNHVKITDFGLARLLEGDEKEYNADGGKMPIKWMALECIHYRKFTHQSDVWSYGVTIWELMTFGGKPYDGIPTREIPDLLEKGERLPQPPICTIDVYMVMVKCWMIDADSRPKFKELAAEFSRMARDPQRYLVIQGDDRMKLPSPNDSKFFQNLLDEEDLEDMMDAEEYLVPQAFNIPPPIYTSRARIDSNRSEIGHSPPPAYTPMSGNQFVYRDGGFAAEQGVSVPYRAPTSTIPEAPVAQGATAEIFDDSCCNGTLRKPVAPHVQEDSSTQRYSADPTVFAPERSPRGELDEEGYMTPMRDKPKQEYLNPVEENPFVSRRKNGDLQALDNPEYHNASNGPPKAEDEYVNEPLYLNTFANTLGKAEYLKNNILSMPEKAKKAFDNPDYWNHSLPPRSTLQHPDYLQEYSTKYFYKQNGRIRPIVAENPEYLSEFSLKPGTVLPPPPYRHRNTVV

Batch request: IC50 for each of the following compounds.
1. NC(=O)c1cccc(Nc2ncnc(Nc3cc(-c4ccco4)n[nH]3)n2)c1 [Compound 342]
2. COc1cc(Nc2ncnc(-n3cnc4ccccc43)n2)cc(OC)c1OC [Compound 186]
3. COc1cc(Nc2ncnc(-n3c(Nc4ccccc4C)nc4ccccc43)n2)cc(OC)c1OC [Compound 384]
4. C=CCNc1cc(-c2ncnc(Nc3cc(OC)c(OC)c(OC)c3)n2)ccn1 [Compound 412]

1. 1.1 to 6.62 µM
2. > 11.9 µM
3. > 9.31 µM
4. > 11.4 µM

Batch request: IC50 for each of the following compounds.
1. NC(=O)c1ccc(Nc2ncnc(Nc3cc(-c4ccco4)n[nH]3)n2)cc1 [Compound 341]
2. Cc1cccc(Nc2ncnc(Nc3ccc(O)cc3)n2)c1 [Compound 107]
3. COc1cc(Nc2ncnc(Nc3cccc(C)c3)n2)cc(OC)c1OC [Compound 64]

> 12.4 µM
8.18 to 11.9 µM
> 12.2 µM

Batch request: IC50 for each of the following compounds.
1. COc1cc(Nc2ncnc(-n3c(Nc4ccc5[nH]ncc5c4)nc4ccccc43)n2)cc(OC)c1OC [Compound 404]
2. COc1cc(Nc2ncnc(-n3ncc4ccccc43)n2)cc(OC)c1OC [Compound 240]

["> 8.83 µM", "> 11.9 µM"]

---

Measurement target: Kdr (Homo sapiens, UniProt P35968)
Construct: Kinases are expressed as either kinase domains or full length constructs; made in house
Sequence (P35968 20-1356, species assumed): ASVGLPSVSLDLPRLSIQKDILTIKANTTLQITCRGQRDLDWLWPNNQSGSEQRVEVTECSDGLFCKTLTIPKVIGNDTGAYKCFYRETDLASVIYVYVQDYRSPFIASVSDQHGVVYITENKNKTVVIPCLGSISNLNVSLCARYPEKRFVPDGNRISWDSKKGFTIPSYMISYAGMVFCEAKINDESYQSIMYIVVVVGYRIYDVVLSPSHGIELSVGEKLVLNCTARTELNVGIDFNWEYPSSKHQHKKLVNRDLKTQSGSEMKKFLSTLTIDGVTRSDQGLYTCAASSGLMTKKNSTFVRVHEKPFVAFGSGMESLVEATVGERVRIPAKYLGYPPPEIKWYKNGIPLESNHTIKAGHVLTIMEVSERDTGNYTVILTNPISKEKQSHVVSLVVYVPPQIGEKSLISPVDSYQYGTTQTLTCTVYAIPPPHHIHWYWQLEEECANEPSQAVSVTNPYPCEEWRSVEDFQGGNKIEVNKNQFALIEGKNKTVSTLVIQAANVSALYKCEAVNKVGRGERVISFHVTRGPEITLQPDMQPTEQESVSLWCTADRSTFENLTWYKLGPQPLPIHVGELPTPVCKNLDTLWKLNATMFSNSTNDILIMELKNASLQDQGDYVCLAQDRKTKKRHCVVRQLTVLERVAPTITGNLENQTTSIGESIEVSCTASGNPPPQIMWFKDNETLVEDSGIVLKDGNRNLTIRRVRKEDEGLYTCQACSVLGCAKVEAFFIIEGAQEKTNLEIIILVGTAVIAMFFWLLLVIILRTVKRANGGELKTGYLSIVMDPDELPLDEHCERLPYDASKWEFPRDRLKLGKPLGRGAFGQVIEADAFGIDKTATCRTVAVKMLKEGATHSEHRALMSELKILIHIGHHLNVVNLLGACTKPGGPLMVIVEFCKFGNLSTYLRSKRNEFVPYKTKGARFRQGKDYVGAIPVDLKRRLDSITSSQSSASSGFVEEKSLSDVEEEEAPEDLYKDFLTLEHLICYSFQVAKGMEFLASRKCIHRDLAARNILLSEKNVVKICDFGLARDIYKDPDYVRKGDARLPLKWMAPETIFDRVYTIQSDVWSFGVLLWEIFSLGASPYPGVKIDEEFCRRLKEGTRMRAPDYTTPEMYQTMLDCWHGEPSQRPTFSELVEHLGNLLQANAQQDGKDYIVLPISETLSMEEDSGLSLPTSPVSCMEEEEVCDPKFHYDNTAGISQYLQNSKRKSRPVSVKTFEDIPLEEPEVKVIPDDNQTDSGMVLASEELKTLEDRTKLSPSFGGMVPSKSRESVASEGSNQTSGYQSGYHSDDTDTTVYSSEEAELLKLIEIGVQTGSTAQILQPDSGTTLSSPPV
Test method notes: Kinase inhibition assay (33P transfer), Kdr
Format: biochemical
Measurement conditions: read-out: KDR-1
For each of the compounds below, state its IC50.

Batch request: IC50 for each of the following compounds.
1. CCN(CC)CCOc1ccc(Nc2ncnc(-n3c(N)nc4ccccc43)n2)cc1OC
2. O=c1[nH]c2ccccc2n1-c1ncnc(Nc2cnc3ccccc3c2)n1
3. CCC(O)CNc1ncnc(Nc2ccc(OC)c(OC)c2)n1 (centres unmarked)
4. COc1cc(Br)ccc1Nc1nc2ccccc2n1-c1ncnc(Nc2cc(OC)c(OC)c(OC)c2)n1
5. C=CCNc1ncccc1-c1ncnc(Nc2cc(OC)c(OC)c(OC)c2)n1
6. COc1cc(C)c(Nc2ncnc(-n3c(N)nc4ccccc43)n2)cc1OC
7. CN(c1cccc(Cl)c1)c1ncnc(Nc2cccc(CC(=O)O)c2)n1
8. COC(=O)Cc1cccc(Nc2ncnc(-n3c(NCc4ccc(OC)cc4)nc4ccccc43)n2)c1

["< 892 nM", "1130 to 6750 nM", "> 14100 nM", "692 to 4150 nM", "< 1010 nM", "1060 to 6360 nM", "< 1080 nM", "< 807 nM"]
